# Test system: monkey primary hepatocytes
# assaySummary: Metabolic disposition of [^14C]-Compound 1 and [^14C]-2′-C-methyl guanosine in monkey primary hepatocytes (incubation medium, cellular extracts, nucleotide levels)
# Type: in vitro ADME, Cynomolgus monkey
# assayConditions: monkey hepatocytes Cy234; 10 μM [^14C]-2′-C-methyl guanosine; 4 h
Item-by-item account of Major metabolites observed in cellular extracts (% of total radioactivity)
propertyName: Major metabolites observed in cellular extracts (% of total radioactivity)

compound: C[C@@]1(O)[C@H](O)[C@@H](COP(=O)(O)OP(=O)(O)OP(=O)(O)O)O[C@H]1n1cnc2c(=O)[nH]c(N)nc21
experimentalResult: 35.6 % of total radioactivity
//
compound: C[C@@]1(O)[C@H](O)[C@@H](CO)O[C@H]1n1cnc2c(=O)[nH]c(N)nc21 [2′-C-methyl guanosine, 9-(2-C-methyl-β-D-ribofuranosyl)guanine, reference compound]
experimentalResult: 57.9 % of total radioactivity
//
compound: C[C@@]1(O)[C@H](O)[C@@H](COP(=O)(O)OP(=O)(O)O)O[C@H]1n1cnc2c(=O)[nH]c(N)nc21
experimentalResult: 6.51 % of total radioactivity

====

# assaySummary: In vitro intracellular half-life of 2′-C-methyl guanosine-5′-triphosphate (Compound 7) in human primary hepatocytes
# Type: in vitro ADME
# assayConditions: human, primary hepatocytes (cellular extracts), in vitro half-life for Compound 7, human hepatocytes, following [^14C]-Compound 1

structureSmiles: C[C@@]1(O)[C@H](O)[C@@H](COP(=O)(O)OP(=O)(O)OP(=O)(O)O)O[C@H]1n1cnc2c(=O)[nH]c(N)nc21
half-life at 10 μM, h: 17.4

====

# Tested on: monkey primary hepatocytes
# assaySummary: Metabolic disposition of [^14C]-Compound 1 and [^14C]-2′-C-methyl guanosine in monkey primary hepatocytes (incubation medium, cellular extracts, nucleotide levels)
# Type: in vitro ADME, Cynomolgus monkey
# assayConditions: monkey hepatocytes Cy234; 10 μM [^14C]-2′-C-methyl guanosine; 1 h
propertyName: Major metabolites observed in cellular extracts (% of total radioactivity)

molecule: C[C@@]1(O)[C@H](O)[C@@H](COP(=O)(O)OP(=O)(O)OP(=O)(O)O)O[C@H]1n1cnc2c(=O)[nH]c(N)nc21 [Compound 7]
experimentalResult: 8.70 % of total radioactivity
--
molecule: C[C@@]1(O)[C@H](O)[C@@H](CO)O[C@H]1n1cnc2c(=O)[nH]c(N)nc21 [2′-C-methyl guanosine, 9-(2-C-methyl-β-D-ribofuranosyl)guanine, reference compound]
experimentalResult: 86.9 % of total radioactivity
--
molecule: C[C@@]1(O)[C@H](O)[C@@H](COP(=O)(O)OP(=O)(O)O)O[C@H]1n1cnc2c(=O)[nH]c(N)nc21 [Compound 6]
experimentalResult: 2.19 % of total radioactivity
--
molecule: C[C@@]1(O)[C@H](O)[C@@H](COP(=O)(O)O)O[C@H]1n1cnc2c(=O)[nH]c(N)nc21 [Compound 5]
experimentalResult: 2.19 % of total radioactivity

====

Item-by-item account of CC50
# System: GS4.1 cells
# assaySummary: Cytotoxicity assay (MTS), GS4.1 cells
# Type: cell-based, human
# assayConditions: 3 days (NS4A-ELISA Assay)

compound: CC(C)(CO)C(=O)SCCOP(=O)(NCc1ccccc1)OC[C@H]1O[C@@H](n2cnc3c(=O)[nH]c(N)nc32)[C@](C)(O)[C@@H]1O (single isomer, unassigned; diastereomer 1) [Diastereomer 1]
studyTarget: GS4.1 cells
CC50: > 100 µM
//
compound: CC(C)(CO)C(=O)SCCOP(=O)(NCc1ccccc1)OC[C@H]1O[C@@H](n2cnc3c(=O)[nH]c(N)nc32)[C@](C)(O)[C@@H]1O (single isomer, unassigned; diastereomer 2) [Diastereomer 2]
studyTarget: GS4.1 cells
CC50: > 100 µM

====

Item-by-item account of % AD (percent of administered dose)
# assaySummary: Metabolite profile in rat urine
# Assay type: in vivo, male Sprague-Dawley rats
# assayConditions: group 1C (IV dose) pooled urine, 2 h collection

compound: C[C@@]1(O)[C@H](O)[C@@H](COP(=O)(O)NCc2ccccc2)O[C@H]1n1cnc2c(=O)[nH]c(N)nc21 [Compound 2]
% AD (percent of administered dose) / % AD: 0.13
--
compound: CC(C)(CO)C(=O)SCCOP(=O)(NCc1ccccc1)OC[C@H]1O[C@@H](n2cnc3c(=O)[nH]c(N)nc32)[C@](C)(O)[C@@H]1O (mixture of isomers) [Compound 1]
% AD (percent of administered dose) / % AD: 2.50
--
compound: CC(C)(CO)C(=O)SCCOP(N)(=O)OC[C@H]1O[C@@H](n2cnc3c(=O)[nH]c(N)nc32)[C@](C)(O)[C@@H]1O (single isomer, unassigned; diastereomer 1) [Compd 3 Diastereomer 1]
% AD (percent of administered dose) / % AD: 0.05
--
compound: C[C@@]1(O)[C@H](O)[C@@H](CO)O[C@H]1n1cnc2c(=O)[nH]c(N)nc21 [2′-C-methyl guanosine, 9-(2-C-methyl-β-D-ribofuranosyl)guanine, reference compound]
% AD (percent of administered dose) / % AD: 1.79
--
compound: CC(C)(CO)C(=O)SCCOP(N)(=O)OC[C@H]1O[C@@H](n2cnc3c(=O)[nH]c(N)nc32)[C@](C)(O)[C@@H]1O (single isomer, unassigned; diastereomer 2) [Compd 3 Diastereomer 2]
% AD (percent of administered dose) / % AD: 0.14

====

# assaySummary: Metabolite profile in rat liver
# Type: in vivo, male Sprague-Dawley rats
# assayConditions: male, Sprague-Dawley, rat, liver, po, 100 mg/kg, group 2 (PO dose) pooled liver, 2 h; read-out: liver concentration as μg equivalents/g
Item-by-item account of concentration at 2 h
propertyName: concentration at 2 h (ng/g)

molecule: C[C@@]1(O)[C@H](O)[C@@H](CO)O[C@H]1n1cnc2c(=O)[nH]c(N)nc21 [2′-C-methyl guanosine, 9-(2-C-methyl-β-D-ribofuranosyl)guanine, reference compound]
propertyName: concentration at 2 h
experimentalResult: 3940

molecule: C[C@@]1(O)[C@H](O)[C@@H](COP(=O)(O)OP(=O)(O)O)O[C@H]1n1cnc2c(=O)[nH]c(N)nc21
propertyName: concentration at 2 h
experimentalResult: 1150

====

# assaySummary: Incubation with human liver cytosol
# Assay type: in vitro ADME
# assayConditions: human cytosol 1 mg/mL, 2 hours, 10 μM
Item-by-item account of Residual compound following incubation with liver cytosol
propertyName: Residual compound following incubation with liver cytosol

compound: C[C@@]1(O)[C@H](O)[C@@H](COP(=O)(O)NCc2ccccc2)O[C@H]1n1cnc2c(=O)[nH]c(N)nc21 [Compound 2]
experimentalResult: 0%
--
compound: C[C@@]1(O)[C@H](O)[C@@H](COP(N)(=O)O)O[C@H]1n1cnc2c(=O)[nH]c(N)nc21 [Compound 4]
experimentalResult: 100%
--
compound: CC(C)(CO)C(=O)SCCOP(N)(=O)OC[C@H]1O[C@@H](n2cnc3c(=O)[nH]c(N)nc32)[C@](C)(O)[C@@H]1O (mixture of isomers) [Compound 3]
experimentalResult: 100%
--
compound: CC(C)(CO)C(=O)SCCOP(=O)(NCc1ccccc1)OC[C@H]1O[C@@H](n2cnc3c(=O)[nH]c(N)nc32)[C@](C)(O)[C@@H]1O (mixture of isomers) [Compound 1]
experimentalResult: 100%

====

# assaySummary: In vitro intracellular half-life of 2′-C-methyl guanosine-5′-triphosphate (Compound 7) in human primary hepatocytes
# Assay type: in vitro ADME
# assayConditions: human, primary hepatocytes (cellular extracts), in vitro intracellular t1/2 of Compound 7, human hepatocytes Hu775; after 24 h incubation with 10 μM [^14C]-2′-C-methyl guanosine; linear regression
# Experimental: Primary hepatocytes were incubated with 10 μM [^14C]-Compound 1 ([…]) or [^14C]-2′-C-methyl guanosine (127 DPM/μmol) for 24 hours at which time the incubation medium was removed and the cell monolayer carefully washed two times with warm (37° C.) PBS and placed back in culture with drug-free medium. At selected times up to 24 hours, the medium was removed and the cell monolayers carefully washed two times with ice-cold PBS. […]

structureSmiles: C[C@@]1(O)[C@H](O)[C@@H](COP(=O)(O)OP(=O)(O)OP(=O)(O)O)O[C@H]1n1cnc2c(=O)[nH]c(N)nc21
half-life at 10 μM, h: 10.8

====

Item-by-item account of Percent of Dose, Total (urine, feces and liver)
# assaySummary: Excretion of administered dose in rat urine and feces
# Format: in vivo, male Sprague-Dawley rats
# assayConditions: IV; 24 h after [14C]Compound 1
propertyName: Percent of Dose, Total (urine, feces and liver)

molecule: C[C@@]1(O)[C@H](O)[C@@H](COP(=O)(O)NCc2ccccc2)O[C@H]1n1cnc2c(=O)[nH]c(N)nc21 [Compound 2]
experimentalResult: 0.76% of Dose
--
molecule: C[C@@]1(O)[C@H](O)[C@@H](COP(=O)(O)O)O[C@H]1n1cnc2c(=O)[nH]c(N)nc21 [Compound 5]
experimentalResult: 1.05% of Dose
--
molecule: CC(C)(CO)C(=O)SCCOP(=O)(NCc1ccccc1)OC[C@H]1O[C@@H](n2cnc3c(=O)[nH]c(N)nc32)[C@](C)(O)[C@@H]1O (mixture of isomers) [Compound 1]
experimentalResult: 45.9% of Dose
--
molecule: C[C@@]1(O)[C@H](O)[C@@H](CO)O[C@H]1n1cnc2c(=O)[nH]c(N)nc21 [2′-C-methyl guanosine, 9-(2-C-methyl-β-D-ribofuranosyl)guanine, reference compound]
experimentalResult: 34.5% of Dose
--
molecule: C[C@@]1(O)[C@H](O)[C@@H](COP(=O)(O)OP(=O)(O)O)O[C@H]1n1cnc2c(=O)[nH]c(N)nc21 [Compound 6]
experimentalResult: 0.29% of Dose
